# experimental.target: T1, cynomolgus monkey IL-33 expressed with a C-terminal hexahistidine tag (cynomolgus monkey)
# T1 construct: also called MfIL-33-6His; Mf-IL-33-6His
# T1 chain: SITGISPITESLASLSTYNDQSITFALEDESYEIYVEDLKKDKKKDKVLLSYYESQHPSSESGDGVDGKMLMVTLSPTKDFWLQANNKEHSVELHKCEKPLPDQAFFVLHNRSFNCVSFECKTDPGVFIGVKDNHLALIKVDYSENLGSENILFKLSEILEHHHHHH
# experiment.summary: SPR 25C pH7.4, mAb captured
endpoint.name: Kd

**Query** Record request: Kd value, item H1M9566N (antibody, mouse IgG1, V domains shown, Human variable domains, mouse IgG1 Fc (H1M)) VH: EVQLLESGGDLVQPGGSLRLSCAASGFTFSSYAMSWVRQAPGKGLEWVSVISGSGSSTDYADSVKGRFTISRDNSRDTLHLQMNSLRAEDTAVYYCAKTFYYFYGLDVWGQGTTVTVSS VL: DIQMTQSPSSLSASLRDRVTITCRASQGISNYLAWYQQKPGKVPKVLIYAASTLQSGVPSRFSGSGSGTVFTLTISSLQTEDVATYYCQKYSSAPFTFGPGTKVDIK
**Result** 0.333 nM

**Query** Repeat for the following binder: H4H9672P (antibody, human IgG4, V domains shown, Human IgG4 Fc (H4H)) VH: EVQLVESGGGLVQPGGSLRLSCAASGFTLRSYVMYWVRQGPGKGLEGVSGISGSSGGTYYTDSVKGRFTISRDNSKNTLFLQMNSLRAEDTAVYFCARSVYSTTWYGGFQHWGQGTLVTVSS VL: DIQMTQSPSSVSVSVGDRVTITCRASQVISSWLAWYQLKPGKAPKLLIYAASSLQSGVPSRFSGSGSGTDFTLTISGLQPEDFAVYYCQQTNSFPLTFGGGTKVEIK
**Result** 8.22 nM

**Query** Repeat for the following binder: H4H9665P (antibody, human IgG4, V domains shown, Human IgG4 Fc (H4H)) VH: EVQLVESGGGLVQPGGSLRLSCAASGFTFSNYAMTWVRQAPGKGLEWVSTISGSGDNTYYADSVQGRFTISRGHSKNTLYLQMNSLRAEDTAVYYCAKPTYSRSWYGAFDFWGQGTMVTVSS VL: DIQMTQSPSSVSASVGDRVTITCRASQGISSWLAWYQQKPGKAPQLLIYAASRLQSGVPSRFWGSGSGTDFTLTISSLQPEDFATYYCQQANNFPFTFGPGTKVDIK
**Result** 1.02 nM

Where these numbers come from: patent US20160362487A1
